Values compiled from the supplement of paper PMC5998384.

Test system: HeLa Kyoto
TEST_NAME: melting temperature (median over replicates), in situ; higher = more thermally stable
CONDITION_DETAILS: cell cycle stage: mitosis
Quick reference: melting temperature of the listed items.

{"SEQUENCE_CHAIN": "MAAEGWIWRWGWGRRCLGRPGLLGPGPGPTTPLFLLLLLGSVTADITDGNSEHLKREHSLIKPYQGVGSSSMPLWDFQGSTMLTSQYVRLTPDERSKEGSIWNHQPCFLKDWEMHVHFKVHGTGKKNLHGDGIALWYTRDRLVPGPVFGSKDNFHGLAIFLDTYPNDETTERVFPYISVMVNNGSLSYDHSKDGRWTELAGCTADFRNRDHDTFLAVRYSRGRLTVMTDLEDKNEWKNCIDITGVRLPTGYYFGASAGTGDLSDNHDIISMKLFQLMVEHTPDEESIDWTKIEPSVNFLKSPKDNVDDPTGNFRSGPLTGWRVFLLLLCALLGIVVCAVVGAVVFQKRQERNKRFY [LMAN2]", "melting temperature, °C": 53.8}
{"SEQUENCE_CHAIN": "MLPLLRCVPRVLGSSVAGLRAAAPASPFRQLLQPAPRLCTRPFGLLSVRAGSERRPGLLRPRGPCACGCGCGSLHTDGDKAFVDFLSDEIKEERKIQKHKTLPKMSGGWELELNGTEAKLVRKVAGEKITVTFNINNSIPPTFDGEEEPSQGQKVEEQEPELTSTPNFVVEVIKNDDGKKALVLDCHYPEDEVGQEDEAESDIFSIREVSFQSTGESEWKDTNYTLNTDSLDWALYDHLMDFLADRGVDNTFADELVELSTALEHQEYITFLEDLKSFVKSQ [C1QBP]", "melting temperature, °C": 52}
{"SEQUENCE_CHAIN": "MLLSLVLHTYSMRYLLPSVVLLGTAPTYVLAWGVWRLLSAFLPARFYQALDDRLYCVYQSMVLFFFENYTGVQILLYGDLPKNKENIIYLANHQSTVDWIVADILAIRQNALGHVRYVLKEGLKWLPLYGCYFAQHGGIYVKRSAKFNEKEMRNKLQSYVDAGTPMYLVIFPEGTRYNPEQTKVLSASQAFAAQRGLAVLKHVLTPRIKATHVAFDCMKNYLDAIYDVTVVYEGKDDGGQRRESPTMTEFLCKECPKIHIHIDRIDKKDVPEEQEHMRRWLHERFEIKDKMLIEFYESPDPERRKRFPGKSVNSKLSIKKTLPSMLILSGLTAGMLMTDAGRKLYVNTWIYGTLLGCLWVTIKA [AGPAT5]", "melting temperature, °C": 52.6}
{"SEQUENCE_CHAIN": "MSESLVVCDVAEDLVEKLRKFRFRKETNNAAIIMKIDKDKRLVVLDEELEGISPDELKDELPERQPRFIVYSYKYQHDDGRVSYPLCFIFSSPVGCKPEQQMMYAGSKNKLVQTAELTKVFEIRNTEDLTEEWLREKLGFFH [GMFB]", "melting temperature, °C": 55.6}
{"SEQUENCE_CHAIN": "MSKPPPKPVKPGQVKVFRALYTFEPRTPDELYFEEGDIIYITDMSDTNWWKGTSKGRTGLIPSNYVAEQAESIDNPLHEAAKRGNLSWLRECLDNRVGVNGLDKAGSTALYWACHGGHKDIVEMLFTQPNIELNQQNKLGDTALHAAAWKGYADIVQLLLAKGARTDLRNIEKKLAFDMATNAACASLLKKKQGTDAVRTLSNAEDYLDDEDSD [OSTF1]", "melting temperature, °C": 50.7}

----------
Test system: HeLa Kyoto
TEST_NAME: solubility change mitosis vs G1/S (difference of NP-40 vs SDS log2 ratios) (log2 ratio difference); higher = more soluble in mitosis
Listed here are substances together with their documented solubility change mitosis (log2).

{"SUBSTANCE": "CTDSPL2", "solubility change mitosis (log2)": 0.46}
{"SUBSTANCE": "MAGIPGLLFLLFFLLCAVGQVSPYSAPWKPTWPAYRLPVVLPQSTLNLAKPDFGAEAKLEVSSSCGPQCHKGTPLPTYEEAKQYLSYETLYANGSRTETQVGIYILSSSGDGAQHRDSGSSGKSRRKRQIYGYDSRFSIFGKDFLLNYPFSTSVKLSTGCTGTLVAEKHVLTAAHCIHDGKTYVKGTQKLRVGFLKPKFKDGGRGANDSTSAMPEQMKFQWIRVKRTHVPKGWIKGNANDIGMDYDYALLELKKPHKRKFMKIGVSPPAKQLPGGRIHFSGYDNDRPGNLVYRFCDVKDETYDLLYQQCDAQPGASGSGVYVRMWKRQQQKWERKIIGIFSGHQWVDMNGSPQDFNVAVRITPLKYAQICYWIKGNYLDCREG [PRSS23]", "solubility change mitosis (log2)": 0.203}
{"SUBSTANCE": "MDKLKKVLSGQDTEDRSGLSEVVEASSLSWSTRIKGFIACFAIGILCSLLGTVLLWVPRKGLHLFAVFYTFGNIASIGSTIFLMGPVKQLKRMFEPTRLIATIMVLLCFALTLCSAFWWHNKGLALIFCILQSLALTWYSLSFIPFARDAVKKCFAVCLA [SFT2D2]", "solubility change mitosis (log2)": 0.0654}
{"SUBSTANCE": "MVKLFIGNLPREATEQEIRSLFEQYGKVLECDIIKNYGFVHIEDKTAAEDAIRNLHHYKLHGVNINVEASKNKSKTSTKLHVGNISPTCTNKELRAKFEEYGPVIECDIVKDYAFVHMERAEDAVEAIRGLDNTEFQGKRMHVQLSTSRLRTAPGMGDQSGCYRCGKEGHWSKECPIDRSGRVADLTEQYNEQYGAVRTPYTMSYGDSLYYNNAYGALDAYYKRCRAARSYEAVAAAAASVYNYAEQTLSQLPQVQNTAMASHLTSTSLDPYDRHLLPTSGAAATAAAAAAAAAAVTAASTSYYGRDRSPLRRATAPVPTVGEGYGYGHESELSQASAAARNSLYDMARYEREQYADRARYSAF [RBM4]", "solubility change mitosis (log2)": -0.0121}

----------
Tested on: HeLa Kyoto
TEST_NAME: solubility change mitosis vs G1/S (difference of NP-40 vs SDS log2 ratios) (log2 ratio difference); higher = more soluble in mitosis
Listed here are substances together with their documented solubility change mitosis (log2).

{"SUBSTANCE": "MEVLAAETTSQQERLQAIAEKRKRQAEIENKRRQLEDERRQLQHLKSKALRERWLLEGTPSSASEGDEDLRRQMQDDEQKTRLLEDSVSRLEKEIEVLERGDSAPATAKENAAAPSPVRAPAPSPAKEERKTEVVMNSQQTPVGTPKDKRVSNTPLRTVDGSPMMKAAMYSVEITVEKDKVTGETRVLSSTTLLPRQPLPLGIKVYEDETKVVHAVDGTAENGIHPLSSSEVDELIHKADEVTLSEAGSTAGAAETRGAVEGAARTTPSRREITGVQAQPGEATSGPPGIQPGQEPPVTMIFMGYQNVEDEAETKKVLGLQDTITAELVVIEDAAEPKEPAPPNGSAAEPPTEAASREENQAGPEATTSDPQDLDMKKHRCKCCSIM [PALM]", "solubility change mitosis (log2)": 0.116}
{"SUBSTANCE": "MSSSPVKRQRMESALDQLKQFTTVVADTGDFHAIDEYKPQDATTNPSLILAAAQMPAYQELVEEAIAYGRKLGGSQEDQIKNAIDKLFVLFGAEILKKIPGRVSTEVDARLSFDKDAMVARARRLIELYKEAGISKDRILIKLSSTWEGIQAGKELEEQHGIHCNMTLLFSFAQAVACAEAGVTLISPFVGRILDWHVANTDKKSYEPLEDPGVKSVTKIYNYYKKFSYKTIVMGASFRNTGEIKALAGCDFLTISPKLLGELLQDNAKLVPVLSAKAAQASDLEKIHLDEKSFRWLHNEDQMAVEKLSDGIRKFAADAVKLERMLTERMFNAENGK [TALDO1]", "solubility change mitosis (log2)": -0.00294}
{"SUBSTANCE": "ACADSB", "solubility change mitosis (log2)": -0.0159}

----------
Tested on: HeLa Kyoto
TEST_NAME: solubility in G1/S (NP-40 vs SDS abundance) (log2 ratio); higher = more soluble
CONDITION_DETAILS: cell cycle stage: G1/S
Returns fulfilled if the recorded solubility in G1/S (log2) is greater than or equal to 0.1, and not fulfilled otherwise.

{"SEQUENCE_CHAIN": "MDDKAFTKELDQWVEQLNECKQLNENQVRTLCEKAKEILTKESNVQEVRCPVTVCGDVHGQFHDLMELFRIGGKSPDTNYLFMGDYVDRGYYSVETVTLLVALKVRYPERITILRGNHESRQITQVYGFYDECLRKYGNANVWKYFTDLFDYLPLTALVDGQIFCLHGGLSPSIDTLDHIRALDRLQEVPHEGPMCDLLWSDPDDRGGWGISPRGAGYTFGQDISETFNHANGLTLVSRAHQLVMEGYNWCHDRNVVTIFSAPNYCYRCGNQAAIMELDDTLKYSFLQFDPAPRRGEPHVTRRTPDYFL [PPP2CB]", "GROUP_LABEL": "not fulfilled"}
{"SEQUENCE_CHAIN": "MSYTPGVGGDPAQLAQRISSNIQKITQCSVEIQRTLNQLGTPQDSPELRQQLQQKQQYTNQLAKETDKYIKEFGSLPTTPSEQRQRKIQKDRLVAEFTTSLTNFQKVQRQAAEREKEFVARVRASSRVSGSFPEDSSKERNLVSWESQTQPQVQVQDEEITEDDLRLIHERESSIRQLEADIMDINEIFKDLGMMIHEQGDVIDSIEANVENAEVHVQQANQQLSRAADYQRKSRKTLCIIILILVIGVAIISLIIWGLNH [STX7]", "GROUP_LABEL": "fulfilled"}
{"SEQUENCE_CHAIN": "MIALFNKLLDWFKALFWKEEMELTLVGLQYSGKTTFVNVIASGQFNEDMIPTVGFNMRKITKGNVTIKLWDIGGQPRFRSMWERYCRGVSAIVYMVDAADQEKIEASKNELHNLLDKPQLQGIPVLVLGNKRDLPGALDEKELIEKMNLSAIQDREICCYSISCKEKDNIDITLQWLIQHSKSRRS [ARL8A]", "GROUP_LABEL": "not fulfilled"}
{"SEQUENCE_CHAIN": "MAARRALHFVFKVGNRFQTARFYRDVLGMKVESCSVARLECSGAISAHCSDYTRITEDSFSKPYDGKWSKTMVGFGPEDDHFVAELTYNYGVGDYKLGNDFMGITLASSQAVSNARKLEWPLTEVAEGVFETEAPGGYKFYLQNRSLPQSDPVLKVTLAVSDLQKSLNYWCNLLGMKIYEKDEEKQRALLGYADNQCKLELQGVKGGVDHAAAFGRIAFSCPQKELPDLEDLMKRENQKILTPLVSLDTPGKATVQVVILADPDGHEICFVGDEAFRELSKMDPEGSKLLDDAMAADKSDEWFAKHNKPKASG [GLOD4]", "GROUP_LABEL": "fulfilled"}
{"SEQUENCE_CHAIN": "MEADKDDTQQILKEHSPDEFIKDEQNKGLIDEITKKNIQLKKEIQKLETELQEATKEFQIKEDIPETKMKFLSVETPENDSQLSNISCSFQVSSKVPYEIQKGQALITFEKEEVAQNVVSMSKHHVQIKDVNLEVTAKPVPLNSGVRFQVYVEVSKMKINVTEIPDTLREDQMRDKLELSFSKSRNGGGEVDRVDYDRQSGSAVITFVEIGVADKILKKKEYPLYINQTCHRVTVSPYTEIHLKKYQIFSGTSKRTVLLTGMEGIQMDEEIVEDLINIHFQRAKNGGGEVDVVKCSLGQPHIAYFEE [NMI]", "GROUP_LABEL": "fulfilled"}
{"SEQUENCE_CHAIN": "MSDKPDMAEIEKFDKSKLKKTETQEKNPLPSKETIEQEKQAGES [TMSB4X]", "GROUP_LABEL": "not fulfilled"}
{"SEQUENCE_CHAIN": "MNTVLSRANSLFAFSLSVMAALTFGCFITTAFKDRSVPVRLHVSRIMLKNVEDFTGPRERSDLGFITFDITADLENIFDWNVKQLFLYLSAEYSTKNNALNQVVLWDKIVLRGDNPKLLLKDMKTKYFFFDDGNGLKGNRNVTLTLSWNVVPNAGILPLVTGSGHVSVPFPDTYEITKSY [SPCS3]", "GROUP_LABEL": "not fulfilled"}
{"SEQUENCE_CHAIN": "MEAKTLGTVTPRKPVLSVSARKIKDNAADWHNLILKWETLNDAGFTTANNIANLKISLLNKDKIELDSSSPASKENEEKVCLEYNEELEKLCEELQATLDGLTKIQVKMEKLSSTTKGICELENYHYGEESKRPPLFHTWPTTHFYEVSHKLLEMYRKELLLKRTVAKELAHTGDPDLTLSYLSMWLHQPYVESDSRLHLESMLLETGHRAL [CINP]", "GROUP_LABEL": "fulfilled"}
{"SEQUENCE_CHAIN": "MANRTVKDAHSIHGTNPQYLVEKIIRTRIYESKYWKEECFGLTAELVVDKAMELRFVGGVYGGNIKPTPFLCLTLKMLQIQPEKDIIVEFIKNEDFKYVRMLGALYMRLTGTAIDCYKYLEPLYNDYRKIKSQNRNGEFELMHVDEFIDELLHSERVCDIILPRLQKRYVLEEAEQLEPRVSALEEDMDDVESSEEEEEEDEKLERVPSPDHRRRSYRDLDKPRRSPTLRYRRSRSRSPRRRSRSPKRRSPSPRRERHRSKSPRRHRSRSRDRRHRSRSKSPGHHRSHRHRSHSKSPERSKKSHKKSRRGNE [PRPF38A]", "GROUP_LABEL": "not fulfilled"}
{"SEQUENCE_CHAIN": "MSEPIRVLVTGAAGQIAYSLLYSIGNGSVFGKDQPIILVLLDITPMMGVLDGVLMELQDCALPLLKDVIATDKEDVAFKDLDVAILVGSMPRREGMERKDLLKANVKIFKSQGAALDKYAKKSVKVIVVGNPANTNCLTASKSAPSIPKENFSCLTRLDHNRAKAQIALKLGVTANDVKNVIIWGNHSSTQYPDVNHAKVKLQGKEVGVYEALKDDSWLKGEFVTTVQQRGAAVIKARKLSSAMSAAKAICDHVRDIWFGTPEGEFVSMGVISDGNSYGVPDDLLYSFPVVIKNKTWKFVEGLPINDFSREKMDLTAKELTEEKESAFEFLSSA [MDH1]", "GROUP_LABEL": "fulfilled"}
{"SEQUENCE_CHAIN": "MLSRAVCGTSRQLAPVLGYLGSRQKHSLPDLPYDYGALEPHINAQIMQLHHSKHHAAYVNNLNVTEEKYQEALAKGDVTAQIALQPALKFNGGGHINHSIFWTNLSPNGGGEPKGELLEAIKRDFGSFDKFKEKLTAASVGVQGSGWGWLGFNKERGHLQIAACPNQDPLQGTTGLIPLLGIDVWEHAYYLQYKNVRPDYLKAIWNVINWENVTERYMACKK [SOD2]", "GROUP_LABEL": "fulfilled"}
